- Tested Target: NGF (nerve growth factor) (Homo sapiens, UniProt P01138 P01138:122-241)
- Sequence (P01138 122-241, one chain of several): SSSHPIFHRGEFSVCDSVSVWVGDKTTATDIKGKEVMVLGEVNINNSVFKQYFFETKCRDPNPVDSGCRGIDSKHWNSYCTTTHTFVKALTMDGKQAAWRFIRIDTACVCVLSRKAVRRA
- Measurement Protocol: cell_activity; neurite; TF-1 0.193
- Measurement Parameters: tags: R&D Systems; chain copies: 2
Metric: IC50 (nM)
Please respond with the number in nM and leave the unit unwritten.

Record GGGUCCUGUUCAAGAGUUUCCGUCUCGUGGACUGUUACCC (ssRNA, 2'-F C/U, dA, 2'-OH G) [SEQ ID NO: 112] , field IC50: 0.334

The values you see were collected from patent US20140235701.
